biological target: T1, cSNK:BSA conjugate (bovine, head-to-tail cyclized; conjugated to BSA carrier); assay: BLI 2:1 fit, site 2 (KD2); 50 nM row
T1 construct: also called BSA-cSNK
T1 sequence (P02769 25-607 limits assumed): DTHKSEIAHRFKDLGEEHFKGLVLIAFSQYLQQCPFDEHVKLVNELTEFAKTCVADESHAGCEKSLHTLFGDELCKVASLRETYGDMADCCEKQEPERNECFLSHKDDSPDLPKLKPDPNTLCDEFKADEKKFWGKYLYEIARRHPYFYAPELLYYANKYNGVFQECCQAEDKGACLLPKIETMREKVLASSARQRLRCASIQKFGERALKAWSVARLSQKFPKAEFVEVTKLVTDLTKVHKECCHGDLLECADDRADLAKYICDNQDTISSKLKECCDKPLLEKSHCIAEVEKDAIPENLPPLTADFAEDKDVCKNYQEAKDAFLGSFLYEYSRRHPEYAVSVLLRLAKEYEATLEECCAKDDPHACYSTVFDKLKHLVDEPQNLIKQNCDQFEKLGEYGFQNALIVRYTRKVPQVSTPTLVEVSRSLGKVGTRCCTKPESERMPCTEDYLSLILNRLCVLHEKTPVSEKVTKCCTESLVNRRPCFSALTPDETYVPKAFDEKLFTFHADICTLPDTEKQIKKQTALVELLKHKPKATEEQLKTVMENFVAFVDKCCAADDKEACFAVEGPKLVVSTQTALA
property measured: Kd (nM)
Numeric only. Scale: nM

What value of Kd has been recorded for this entry: murine monoclonal antibody 5E3 (antibody, V domains shown, mouse antibody of the 5E3 hybridoma; also called murine 5E3; m5E3) VH: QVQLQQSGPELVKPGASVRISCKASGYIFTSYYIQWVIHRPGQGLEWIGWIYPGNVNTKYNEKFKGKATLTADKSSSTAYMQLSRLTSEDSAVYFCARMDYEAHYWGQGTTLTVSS VL: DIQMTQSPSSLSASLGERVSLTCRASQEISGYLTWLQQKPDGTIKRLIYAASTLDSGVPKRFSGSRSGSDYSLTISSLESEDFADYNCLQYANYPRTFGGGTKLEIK
1.59
